Please go through the items and note down their inhibition.
target_desc: Pantothenate synthetase (Mycobacterium tuberculosis (strain ATCC 25618 / H37Rv))
experiment_summary: Coupled enzyme confirmation of inhibitors against recombinant Mtb PanC (AID 375);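 also: 0% = full reaction with vehicle and 100% = no enzyme background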
condition_parameters: coupled enzyme assay; at 10 µM, active compounds read high
Give bare numbers, in %.

// known answers, use as guide
compound	test_readout	observed_result
CCCNC(=O)C1CC(=O)N(c2ccc(OCC(=O)Nc3cc(C)cc(C)c3)cc2)C1 (stereo unspecified)	inhibition	0
O=C(CSc1nnc(-c2ccccc2)o1)NC1CCCCC1	inhibition	0
CCc1nc2sc3ccccc3c(=O)c2c(=O)n1Cc1ccco1	inhibition	0

State the recorded inhibition for every item in the following list.
1. Cc1cc(C(=O)OCCO)c(C#N)c(N)n1
2. COc1ccc(-c2nc(C#N)c(N3CCN(c4ccccc4)CC3)o2)cc1
3. CC1(C)Cc2c(c(-c3ccccc3)nc(N3CCCC3)c2C(N)=O)CO1

Result block:
1: 0; 2: 0; 3: 4
